What IC50 was measured for each of the following?
- targetUnderTest: HLA-DR DRB1*0301 (human)
- testSummary: competition with 125I-labelled reference peptide on purified HLA-DR
Answer with a number only, understood to be in nM.

# get_value(readout='IC50', item= TQGALLNDKHSNGTVKD (modifications not checked) [Flu.NA.115 peptide …] ) 177

Okay, and WAVYSKDNSIRIGSK (modifications not checked) [Flu.NA.77 peptide …] ? 291

YIQMCTELKLSDYEG (modifications not checked) [Flu.NP.43 peptide …] ? 368
